# Experimental System: T1, Extracellular domain of human PD1 (huPD1-ECD) (human, UniProt Q15116 25-169, biotinylated in the ligand inhibition assay (sites not given))
# T1 construct: Expressed with a hexahistidine tag or as Fc fusion; also called biotinylated PD-1
# T1 sequence (Q15116 25-169 limits assumed): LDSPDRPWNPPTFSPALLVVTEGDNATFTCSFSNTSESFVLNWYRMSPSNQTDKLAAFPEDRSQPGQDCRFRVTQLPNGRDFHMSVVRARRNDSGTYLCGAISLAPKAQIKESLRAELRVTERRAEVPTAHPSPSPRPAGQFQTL
# Experiment: SPR ProteOn, captured mAb, huPD1-ECD analyte
Recorded Endpoint: koff (s⁻¹)
State the answer as a number, implicitly in s⁻¹.

Would you mind telling me what koff value was observed for PD1B184 (antibody, human IgG2, kappa, V domains shown, IgG2sigma/kappa; VH 43, VL 50; also called PD1H3/PD1L128) VH: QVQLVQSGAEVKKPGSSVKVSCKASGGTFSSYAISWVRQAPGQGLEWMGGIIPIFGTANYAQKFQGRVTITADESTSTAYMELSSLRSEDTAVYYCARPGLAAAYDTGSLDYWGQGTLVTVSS VL: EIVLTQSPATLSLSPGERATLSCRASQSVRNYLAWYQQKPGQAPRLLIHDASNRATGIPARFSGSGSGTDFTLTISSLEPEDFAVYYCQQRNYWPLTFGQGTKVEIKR ? 0.00509

These entries and their values trace back to patent US20210277110A1.
